System: PnaB and PnaC
Test: One-pot tripeptide synthesis using PnaB and PnaC
Format: biochemical, Streptomyces sp. NRRL S-515
Details: role: substrate (dipeptide); with PnAla 1 mM and ATP 5 mM; one-pot with PnaC
Residues, ends and D or L forms follow the SMILES beside them.
endpointName: abundance of PnAla conjugate

q: Give the measured abundance of PnAla conjugate of CC(C)C[C@H](NC(=O)[C@H](C)N)C(=O)O [Ala-Leu] (H-Ala-Leu-OH) .
a: greatest abundance

q: Would you mind telling me what abundance of PnAla conjugate value was observed for CC(C)[C@H](NC(=O)[C@H](C)N)C(=O)O [Ala-Val] (H-Ala-Val-OH) ?
a: greatest abundance

q: What measured abundance of PnAla conjugate goes with CSCC[C@H](NC(=O)[C@H](C)N)C(=O)O [Ala-Met] (H-Ala-Met-OH) ?
a: greatest abundance

q: # lookup: abundance of PnAla conjugate of CC[C@H](C)[C@H](NC(=O)[C@H](C)N)C(=O)O [Ala-Ile] (H-Ala-Ile-OH)
a: greatest abundance

Now examine the next entry.
q: Tell me the measured abundance of PnAla conjugate of C[C@H](N)C(=O)N[C@@H](C)C(=O)O [Ala-Ala] (H-Ala-Ala-OH) , please.
a: greatest abundance
